Tested on: SK-BR-3
Procedure summary: Cytotoxicity against human SKBR3 cells after 48 hrs by SRB assay
Assay type: functional
Details: SK-BR-3, 48 h, read-out: LC50 (the source's name)
Parameter: CC50. Scope: all listed entries.
Write the numeric value and follow it with the unit.

// query Reported CC50 for C/C=C1\NC(=O)[C@H](Cc2ccccc2)NC(=O)[C@@H](C(C)C)NC(=O)[C@@H]([C@H](C)CC)NC(=O)[C@H](NC(=O)[C@H](NC(=O)[C@H](CCCN)NC(=O)[C@H]2CCCN2C(=O)[C@H](NC(=O)[C@@H](NC(=O)[C@@H](NC(=O)[C@@H](Cc2ccccc2)NC(=O)CCCC(C)C)[C@@H](C)O)C(C)C)C(C)C)[C@H](C)CC)[C@H](C)OC(=O)[C@H](C(C)C)NC1=O : what is it?
// result 1670 nM
